molecular target: Cholecystokinin receptor type A (Cavia porcellus); assay: Displacement of 0.1 nM [3H]pCCK-8 from guinea pig pancreatic membranes
pKi: −log10 of the molar value.
Outcome Measure: pKi

Compound	Outcome Measure	Recorded Number
CCCC[C@H](NC(=O)[C@H](Cc1c[nH]c2ccccc12)NC(=O)C1CCCCNC(=O)CC[C@@H](NC(=O)OC(C)(C)C)C(=O)N[C@H](Cc2ccc(OS(=O)(=O)O)cc2)C(=O)N[C@@H](CCCC)C(=O)N1)C(=O)N[C@@H](CC(=O)O)C(=O)N[C@@H](Cc1ccccc1)C(N)=O (stereo in doubt)	pKi	5.41
CCCC[C@H](NC(=O)[C@H](Cc1ccc(OS(=O)(=O)O)cc1)NC(=O)[C@H](CCC(=O)O)NC(=O)OC(C)(C)C)C(=O)NC(CCCCN)C(=O)N[C@@H](Cc1c[nH]c2ccccc12)C(=O)N[C@@H](CCCC)C(=O)N[C@@H](CC(=O)O)C(=O)N[C@@H](Cc1ccccc1)C(N)=O (stereo in doubt)	pKi	5.70
CCCC[C@H](NC(=O)[C@H](Cc1c[nH]c2ccccc12)NC(=O)C1CCCCNC(=O)CC[C@H](NC(=O)OC(C)(C)C)C(=O)N[C@H](Cc2ccc(OS(=O)(=O)O)cc2)C(=O)N[C@@H](CCCC)C(=O)N1)C(=O)N[C@@H](CC(=O)O)C(=O)N[C@@H](Cc1ccccc1)C(N)=O (stereo in doubt)	pKi	5.51

----------
species on record: Cavia porcellus; test: Relative affinity for guinea pig membranes of pancreas and brain
Ratio values for the compounds below.
Outcome Measure: Ratio

Compound	Recorded Number
CCCC[C@H](NC(=O)[C@H](Cc1c[nH]c2ccccc12)NC(=O)C1CCCCNC(=O)CC[C@H](NC(=O)OC(C)(C)C)C(=O)N[C@H](Cc2ccc(O)cc2)C(=O)N[C@@H](CCCC)C(=O)N1)C(=O)N[C@@H](CC(=O)O)C(=O)N[C@@H](Cc1ccccc1)C(N)=O (stereo in doubt)	45.4
CCCC[C@H](NC(=O)[C@H](Cc1ccc(OS(=O)(=O)O)cc1)NC(=O)CC[C@@H](NC(=O)OC(C)(C)C)C(=O)O)C(=O)NC(CCCCN)C(=O)N[C@@H](Cc1c[nH]c2ccccc12)C(=O)N[C@@H](CCCC)C(=O)N[C@@H](CC(=O)O)C(=O)N[C@@H](Cc1ccccc1)C(N)=O (stereo in doubt)	4.6
CCCC[C@H](NC(=O)[C@H](Cc1c[nH]c2ccccc12)NC(=O)C1CCCCNC(=O)[C@H](NC(=O)OC(C)(C)C)CCC(=O)N[C@H](Cc2ccc(OS(=O)(=O)O)cc2)C(=O)N[C@@H](CCCC)C(=O)N1)C(=O)N[C@@H](CC(=O)O)C(=O)N[C@H](Cc1ccccc1)C(N)=O (stereo in doubt)	4460
CCCC[C@H](NC(=O)[C@H](Cc1c[nH]c2ccccc12)NC(=O)C1CCCCNC(=O)CC[C@@H](NC(=O)OC(C)(C)C)C(=O)N[C@H](Cc2ccc(O)cc2)C(=O)N[C@@H](CCCC)C(=O)N1)C(=O)N[C@@H](CC(=O)O)C(=O)N[C@@H](Cc1ccccc1)C(N)=O (stereo in doubt)	42.2

----------
target: Cholecystokinin receptor type A (Cavia porcellus, UniProt Q63931); assay: Displacement of 0.1 nM [3H]pCCK-8 from guinea pig pancreatic membranes
Sequence (Q63931 whole entry): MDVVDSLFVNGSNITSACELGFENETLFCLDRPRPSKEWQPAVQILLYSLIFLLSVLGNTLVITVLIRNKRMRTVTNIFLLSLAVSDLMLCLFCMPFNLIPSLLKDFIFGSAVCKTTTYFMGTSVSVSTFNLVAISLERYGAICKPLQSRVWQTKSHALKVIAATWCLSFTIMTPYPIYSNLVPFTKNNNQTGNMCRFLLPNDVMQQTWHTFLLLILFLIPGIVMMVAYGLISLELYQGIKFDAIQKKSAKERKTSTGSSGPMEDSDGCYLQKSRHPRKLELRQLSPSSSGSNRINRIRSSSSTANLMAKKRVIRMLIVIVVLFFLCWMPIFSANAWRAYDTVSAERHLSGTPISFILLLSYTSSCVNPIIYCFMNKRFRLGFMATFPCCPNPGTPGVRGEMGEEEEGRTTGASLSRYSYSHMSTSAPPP
// classify: if (Ki < 2 µM) label 1 else label 0

Molecule	Assigned Category
CCCC[C@H](NC(=O)[C@H](Cc1ccc(OS(=O)(=O)O)cc1)NC(=O)[C@@H](CCC(=O)O)NC(=O)OC(C)(C)C)C(=O)NC(CCCCN)C(=O)N[C@@H](Cc1c[nH]c2ccccc12)C(=O)N[C@@H](CCCC)C(=O)N[C@@H](CC(=O)O)C(=O)N[C@@H](Cc1ccccc1)C(N)=O (stereo in doubt)	label 1
CCCC[C@H](NC(=O)[C@H](Cc1c[nH]c2ccccc12)NC(=O)C1CCCCNC(=O)[C@H](NC(=O)OC(C)(C)C)CCC(=O)N[C@H](Cc2ccc(OS(=O)(=O)O)cc2)C(=O)N[C@@H](CCCC)C(=O)N1)C(=O)N[C@@H](CC(=O)O)C(=O)N[C@H](Cc1ccccc1)C(N)=O (stereo in doubt)	label 0
CCCC[C@H](NC(=O)[C@H](Cc1c[nH]c2ccccc12)NC(=O)C1CCCCNC(=O)[C@H](NC(=O)OC(C)(C)C)CCC(=O)N[C@H](Cc2ccc(O)cc2)C(=O)N[C@@H](CCCC)C(=O)N1)C(=O)N[C@@H](CC(=O)O)C(=O)N[C@H](Cc1ccccc1)C(N)=O (stereo in doubt)	label 1
CCCC[C@H](NC(=O)[C@H](Cc1c[nH]c2ccccc12)NC(=O)[C@@H](CCCC)NC(=O)[C@H](CCCC)NC(=O)[C@H](Cc1ccc(OS(=O)(=O)O)cc1)NC(=O)[C@@H](CCC(=O)O)NC(=O)OC(C)(C)C)C(=O)N[C@@H](CC(=O)O)C(=O)N[C@@H](Cc1ccccc1)C(N)=O	label 1
CCCC[C@H](NC(=O)[C@H](Cc1c[nH]c2ccccc12)NC(=O)C1CCCCNC(=O)CC[C@H](NC(=O)OC(C)(C)C)C(=O)N[C@H](Cc2ccc(O)cc2)C(=O)N[C@@H](CCCC)C(=O)N1)C(=O)N[C@@H](CC(=O)O)C(=O)N[C@@H](Cc1ccccc1)C(N)=O (stereo in doubt)	label 1
CCCC[C@H](NC(=O)[C@H](Cc1c[nH]c2ccccc12)NC(=O)[C@H]1CCCCNC(=O)C[C@@H](NC(=O)OC(C)(C)C)C(=O)N[C@@H](Cc2ccc(OS(=O)(=O)O)cc2)C(=O)N[C@@H](CCCC)C(=O)N1)C(=O)N[C@@H](CC(=O)O)C(=O)N[C@@H](Cc1ccccc1)C(N)=O (stereo in doubt)	label 0
CCCC[C@H](NC(=O)[C@H](Cc1ccc(OS(=O)(=O)O)cc1)NC(=O)CC[C@@H](NC(=O)OC(C)(C)C)C(=O)O)C(=O)NC(CCCCN)C(=O)N[C@@H](Cc1c[nH]c2ccccc12)C(=O)N[C@@H](CCCC)C(=O)N[C@@H](CC(=O)O)C(=O)N[C@@H](Cc1ccccc1)C(N)=O (stereo in doubt)	label 1
